Each recorded value in this set is attributed to PubChem BioAssay AID686920.

Tested on: A673 NR0B1-luciferase reporter, viability-normalised luminescence
TEST SUMMARY: suppressors of NR0B1-promoter luciferase reporter, dose response, EWS/Fli inhibitor project, luciferase luminescence, A673 cells, cherry-pick (AID 686920)
Hi there, I'd appreciate the recorded AC35 for every entry that follows.

q: Could you tell me which AC35 is on file for CCCN1C(=O)/C(=C/c2nc3ccccc3c(=O)[nH]2)c2ccccc21 ?
a: 32.5 µM

q: Could you tell me which AC35 is on file for CCCn1c(C)cc(C(=O)CN2C(=O)c3ccccc3S2(=O)=O)c1C ?
a: 1.25 µM

q: Could you tell me which AC35 is on file for COc1ccc(C2=Nn3c(nnc3-c3ccccc3OC)SC2)cc1OCC1CC1 ?
a: 6.71 µM

q: Could you tell me which AC35 is on file for C[C@@H]1CCCCO[C@H](CN(C)Cc2ccc(C(=O)Nc3ccccc3N)cc2)[C@@H](C)CN([C@@H](C)CO)C(=O)c2cc(NS(=O)(=O)c3ccc(Cl)cc3)ccc2O1 ?
a: 6.13 µM

q: Could you tell me which AC35 is on file for CCOc1ccc(N=C2C(=O)Nc3ccc(C)c(Br)c32)cc1 ?
a: 26.4 µM

q: Could you tell me which AC35 is on file for CC(=O)c1ccc(NC(=O)c2noc3c2CCC3)cc1 ?
a: 3.06 µM

* * *

Tested on: A673 NR0B1-luciferase reporter, viability-normalised luminescence
TEST SUMMARY: suppressors of NR0B1-promoter luciferase reporter, dose response, EWS/Fli inhibitor project, luciferase luminescence, A673 cells, cherry-pick (AID 686920)
MEASUREMENT TYPE: AC35

q: Could you tell me which AC35 is on file for Oc1[nH]c2ccc(Br)cc2c1N=NC(=S)N1CCOCC1 ?
a: 26.5 µM

q: Could you tell me which AC35 is on file for O=C(O)c1cccc(N/N=C/c2cccs2)c1 ?
a: 1.25 µM

q: Could you tell me which AC35 is on file for COc1ccc(CNc2ncc(-c3ccc(F)cc3)n2C)c2ccccc12 ?
a: 6.93 µM

q: Could you tell me which AC35 is on file for CCc1nc(N)nc(N)c1-c1ccc(Cl)c(N=[N+]=[N-])c1 ?
a: 6.23 µM

q: Could you tell me which AC35 is on file for COc1ccc(C=C2CCc3ccccc3C2=O)cc1 ?
a: 10.4 µM

q: Could you tell me which AC35 is on file for CCc1ccc(/C=C2\SC(=S)N(CCC(=O)Nc3cc(C)on3)C2=O)cc1 ?
a: 6.38 µM

q: Could you tell me which AC35 is on file for C[C@@H]1CN([C@H](C)CO)C(=O)c2cc(C#CCN(C)C)cnc2O[C@H]1CN(C)Cc1ccc(-c2ccccc2)cc1 ?
a: 10.9 µM

q: Could you tell me which AC35 is on file for C[C@@H]1CN([C@H](C)CO)C(=O)c2cc(C#CCc3ccccc3)cnc2O[C@@H]1CN(C)Cc1cccc(F)c1 ?
a: 46.1 µM

q: Could you tell me which AC35 is on file for CC1(C)Oc2cc3oc(-c4cc(O)cc(O)c4)cc3cc2CC1O (centres undefined) ?
a: 2.07 µM

q: Could you tell me which AC35 is on file for CCC(C)Cn1c(O)cc2nn(-c3nc4ccccc4s3)c(=O)c-2c1C (centres undefined) ?
a: 1.57 µM

q: Could you tell me which AC35 is on file for Cc1ccc(C(C)C)c(OCc2ccc(C(=O)N/N=C/c3ccc(O)cc3O)cc2)c1 ?
a: 1.46 µM

q: Could you tell me which AC35 is on file for CCc1ccc(/C=C2\SC(=S)N(CCCC(=O)NCCCN3CCOCC3)C2=O)cc1 ?
a: 1.98 µM

q: Could you tell me which AC35 is on file for COc1cc(OC)cc(-c2cc3nc(C)c(CCC(=O)O)c(C)n3n2)c1 ?
a: 0.243 µM

q: Could you tell me which AC35 is on file for CC(C)(C)C(=O)Cn1ncc(Cl)c(Cl)c1=O ?
a: 12.9 µM

q: Could you tell me which AC35 is on file for CCCCCCCCNC(C)C(O)c1ccc(SC(C)C)cc1 (centres undefined) ?
a: 9.79 µM

q: Could you tell me which AC35 is on file for COc1cc(C(=O)N2CCC(N3CCN(C)CC3)CC2)ccc1Nc1ncc2c(n1)N(C)c1ccccc1C(=O)N2C ?
a: 4.75 µM

q: Could you tell me which AC35 is on file for N#CC1=C(N)Oc2cc(N)ccc2C1c1cccc(F)c1 (centres undefined) ?
a: 1.96 µM

q: Could you tell me which AC35 is on file for COc1ccc(Cn2cc3c(-c4ccc(F)cc4)nnc-3c3cc(OC)c(OC)cc32)cc1 ?
a: 14.1 µM

q: Could you tell me which AC35 is on file for Cc1ccc2oc(/N=C(\N)NC(=O)C(C)(C)C)nc2c1 ?
a: 0.18 µM

q: Could you tell me which AC35 is on file for COC(=O)C[C@@H]1CC[C@@H]2[C@H](COc3ccc(NC(=O)Nc4ccc(C#N)cc4)cc3C(=O)N2C)O1 ?
a: 62.4 µM

q: Could you tell me which AC35 is on file for Cc1ccc(S(=O)(=O)Nc2ccc3c(c2)C(=O)N([C@H](C)CO)C[C@H](C)[C@@H](CN(C)Cc2ccc(C(F)(F)F)cc2)OCCCC[C@H](C)O3)cc1 ?
a: 11.5 µM

q: Could you tell me which AC35 is on file for O=C1NC(=O)N(c2ccccc2)C(=O)/C1=C\C=C\c1ccccc1 ?
a: 8.31 µM

q: Could you tell me which AC35 is on file for COc1ccc(/C=C2\SC(=O)N(CCCC(=O)Nc3ccc(C(=O)O)cc3)C2=O)cc1 ?
a: 0.504 µM

q: Could you tell me which AC35 is on file for O=C(O)c1cccc(N/N=C/c2ccc(OC(F)(F)F)cc2)c1 ?
a: 2.26 µM

* * *

Hi there, I'd appreciate the recorded AC35 for every entry that follows.
Test system: A673 NR0B1-luciferase reporter, viability-normalised luminescence
TEST SUMMARY: suppressors of NR0B1-promoter luciferase reporter, dose response, EWS/Fli inhibitor project, luciferase luminescence, A673 cells, cherry-pick (AID 686920)

q: Form field: AC35 recorded for O=C(NC1CCCC1)N1CCCCN2[C@@H](CO)[C@@H](c3ccc(/C=C/c4ccccc4)cc3)[C@@H]2C1 with A673 NR0B1-luciferase reporter, viability-normalised luminescence (enter value)
a: 14.3 µM

q: Form field: AC35 recorded for CC(=NNc1ccc2ccccc2n1)c1ccccc1O with A673 NR0B1-luciferase reporter, viability-normalised luminescence (enter value)
a: 5.09 µM

q: Form field: AC35 recorded for COc1ccc(C2=NNC(=Nc3cc(S(=O)(=O)N(C)C)ccc3C)SC2)c(OC)c1 with A673 NR0B1-luciferase reporter, viability-normalised luminescence (enter value)
a: 9.53 µM

* * *

Tested on: A673 NR0B1-luciferase reporter, viability-normalised luminescence
TEST SUMMARY: suppressors of NR0B1-promoter luciferase reporter, dose response, EWS/Fli inhibitor project, luciferase luminescence, A673 cells, cherry-pick (AID 686920)
MEASUREMENT TYPE: AC35

q: Could you tell me which AC35 is on file for COc1ccc(C(C)(O)c2nc(-c3cccc(F)c3)cs2)cc1 (stereo not given) ?
a: 8.04 µM

q: Could you tell me which AC35 is on file for Cc1ccccc1N=CC1=C(O)c2ccccc2C1=O ?
a: 2.72 µM

q: Could you tell me which AC35 is on file for CC(C)(C)[S@](=O)N1Cc2cc(C(=O)NCC(F)(F)F)nc(-c3cccc(-c4cccc(F)c4)c3)c2[C@@H]1CCO ?
a: 18.9 µM

q: Could you tell me which AC35 is on file for N#C[C@H]1N[C@H](CO)[C@H]1c1ccc(C#Cc2ccccc2F)cc1 ?
a: 0.137 µM

q: Could you tell me which AC35 is on file for Oc1c(Cl)cc(Cl)c(Cl)c1Cc1c(O)c(Cl)cc(Cl)c1Cl ?
a: 35.3 µM

q: Could you tell me which AC35 is on file for CC(C)(C)C(=O)Nc1ccc(N=Nc2ccccc2)cc1 ?
a: 10.7 µM

q: Could you tell me which AC35 is on file for Cc1ccccc1NC(=O)C(=Cc1ccc(C(=O)O)cc1)C(=O)Nc1ccccc1C ?
a: 5.63 µM

q: Could you tell me which AC35 is on file for O=C(c1cccc(S(=O)(=O)NCc2ccccc2)c1)N1CCN(c2ccccc2)CC1 ?
a: 11.6 µM

q: Could you tell me which AC35 is on file for O=C1C(=O)N(Cc2cccs2)c2ccccc21 ?
a: 17 µM

q: Could you tell me which AC35 is on file for COc1ccc(NC(=O)N2CCCCN3[C@@H](CO)[C@H](c4ccc(C5=CCCCC5)cc4)[C@@H]3C2)cc1 ?
a: 15.8 µM

q: Could you tell me which AC35 is on file for CN(C)c1ccc(C=c2c3ccccc3n3c2c2c([n+]3C)CCCC2)cc1 ?
a: 1.9 µM

q: Could you tell me which AC35 is on file for N#CC(=C1C=CC(=NO)C(Cl)=C1)c1ccccc1 ?
a: 5.85 µM

q: Could you tell me which AC35 is on file for CO[C@H]1CN(C)C(=O)c2cc(NC(=O)NC(C)C)ccc2OC[C@H](C)N(Cc2ccc(-c3ccccn3)cc2)C[C@@H]1C ?
a: 5.22 µM

q: Could you tell me which AC35 is on file for CCN1/C(=C/C=C/c2oc3ccc(-c4ccccc4)cc3[n+]2CC)Oc2ccc(-c3ccccc3)cc21 ?
a: 2.49 µM

q: Could you tell me which AC35 is on file for CCCCNC1=CC(=O)C(=O)c2ccccc21 ?
a: 6.17 µM

q: Could you tell me which AC35 is on file for CCOc1ccc(OCc2ccc(C(=O)NN=Cc3ccc[nH]3)cc2)cc1 ?
a: 0.461 µM

q: Could you tell me which AC35 is on file for O=c1c2ccccc2oc2ccc(C#CC3(O)CCCCC3)cc12 ?
a: 14.1 µM

q: Could you tell me which AC35 is on file for O=c1ccc2[n+]([O-])c3ccc(O)cc3oc-2c1 ?
a: 3.7 µM

q: Could you tell me which AC35 is on file for Cc1cc(C)cc(N2C(=O)NC(=O)/C(=C\C=C\c3ccco3)C2=O)c1 ?
a: 4.31 µM

q: Could you tell me which AC35 is on file for COc1ccc(NC(=O)N2CCCCN3[C@H](CO)[C@H](c4ccc(C#CCC(C)C)cc4)[C@H]3C2)cc1 ?
a: 9.98 µM
